All figures here come from patent US20110059095A1.

# key: entry, value: EC50
Target: T1, Peptide G (rat PAR-2), N-terminal biotinylated (Rat (Rattus norvegicus), N-terminal biotin via G4S linker)
T1 construct: also called Peptide G N-Term
T1 peptide: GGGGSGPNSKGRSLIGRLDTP
Assay: peptide ELISA titration

Example cases with answers are listed next.
binder	EC50
H4H585P (antibody, human IgG4, V domains shown, also called H1H585P variable regions) VH: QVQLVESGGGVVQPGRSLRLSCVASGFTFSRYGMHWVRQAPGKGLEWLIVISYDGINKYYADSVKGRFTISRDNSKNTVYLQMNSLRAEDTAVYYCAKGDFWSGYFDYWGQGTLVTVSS VL: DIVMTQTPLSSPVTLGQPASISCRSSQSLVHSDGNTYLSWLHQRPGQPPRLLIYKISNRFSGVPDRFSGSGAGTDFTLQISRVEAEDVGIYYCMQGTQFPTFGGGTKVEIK	0.017 nM
H4H581P (antibody, human IgG4, V domains shown, also called mAb H4H581P; H1H581P variable regions) VH: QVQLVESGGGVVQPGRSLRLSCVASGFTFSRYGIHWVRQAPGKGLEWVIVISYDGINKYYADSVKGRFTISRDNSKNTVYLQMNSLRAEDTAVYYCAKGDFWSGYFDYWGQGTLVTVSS VL: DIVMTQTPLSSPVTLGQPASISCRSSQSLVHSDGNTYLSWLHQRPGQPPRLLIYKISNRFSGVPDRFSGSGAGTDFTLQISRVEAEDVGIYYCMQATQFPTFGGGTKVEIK	0.019 nM

Consider the additional binder presented here.
q: Which measured EC50 value corresponds to H4H583P (antibody, human IgG4, V domains shown, also called H1H583P variable regions) VH: QVQLVESGGGVVQPGMSLRLSCTASGFTFRRYGMHWVRQAPGKGLEWVAVIWYDGSNKYYADSVKGRFTITRDNSKNTLYLQMNSLRAEDTAIYFCASEITIGDWFDPRGQGTLVTVSS VL: AIQMTQSPSSLSASVGDRVTITCRASQGIRNDLGWFQQKPGKVPKLLIYAASTLHSGVPSRFSGSGFGTDFTLTISSLQPEDFATYYCLQDFNYPLTFGGGTKVEIK ?
a: 0.015 nM
